tested on: HEK-293T; assay: Incucyte cell viability with HEK293T; assay type: toxicity, cell-based; conditions: human, 18 h, 10 µM, compound concentration 10 uM, replicate number 1, timepoint 18 hours; note: filed as whole numbers so only -1 and 0 and 1 occur
MEASUREMENT NAME: Growth Rate
Numbers only.

For every item below, please supply its Growth Rate.
1. CCCc1nc2c(C)cc(-c3nc4ccccc4n3C)cc2n1Cc1ccc(-c2ccccc2C(=O)O)cc1
2. Br.Br.N=C(N)SCCc1c[nH]cn1

Outgoing:
1: 0; 2: 1

###

test system: U2OS; assay: Multiplex assay against U2OS; format: toxicity, cell-based; settings: human, 12 h, 10 µM, compound concentration 10 uM, replicate 1
MEASUREMENT NAME: Total Cell Count
Answers are plain numbers.

Please state Total Cell Count for every compound in the list that follows.
1. C[C@@H](NCCCc1cccc(C(F)(F)F)c1)c1cccc2ccccc12.Cl [CINACALCET HYDROCHLORIDE]
2. Cc1nc(-c2cn3c(n2)-c2ccc(-c4cnn(C(C)(C)C(N)=O)c4)cc2OCC3)n(C(C)C)n1
3. Cc1nc(-c2ccc(-c3ccc(C(=O)N4CCc5cc6c(cc54)C4(CCN(C)CC4)CO6)cc3)c(C)c2)no1
4. COc1cc2nccc(Oc3ccc(NC(=O)Nc4cc(C)on4)c(Cl)c3)c2cc1OC.O

Outgoing:
155
166
147
152
